Provenance of the data: patent US20240034786A1

# system-under-test: T1, Human P-cadherin on cells (human, UniProt P22223 108-829)
# T1 construct: whole, on cells; Endogenous P-cadherin on tumour cell lines; also called hPro1
# T1 sequence (P22223 108-829): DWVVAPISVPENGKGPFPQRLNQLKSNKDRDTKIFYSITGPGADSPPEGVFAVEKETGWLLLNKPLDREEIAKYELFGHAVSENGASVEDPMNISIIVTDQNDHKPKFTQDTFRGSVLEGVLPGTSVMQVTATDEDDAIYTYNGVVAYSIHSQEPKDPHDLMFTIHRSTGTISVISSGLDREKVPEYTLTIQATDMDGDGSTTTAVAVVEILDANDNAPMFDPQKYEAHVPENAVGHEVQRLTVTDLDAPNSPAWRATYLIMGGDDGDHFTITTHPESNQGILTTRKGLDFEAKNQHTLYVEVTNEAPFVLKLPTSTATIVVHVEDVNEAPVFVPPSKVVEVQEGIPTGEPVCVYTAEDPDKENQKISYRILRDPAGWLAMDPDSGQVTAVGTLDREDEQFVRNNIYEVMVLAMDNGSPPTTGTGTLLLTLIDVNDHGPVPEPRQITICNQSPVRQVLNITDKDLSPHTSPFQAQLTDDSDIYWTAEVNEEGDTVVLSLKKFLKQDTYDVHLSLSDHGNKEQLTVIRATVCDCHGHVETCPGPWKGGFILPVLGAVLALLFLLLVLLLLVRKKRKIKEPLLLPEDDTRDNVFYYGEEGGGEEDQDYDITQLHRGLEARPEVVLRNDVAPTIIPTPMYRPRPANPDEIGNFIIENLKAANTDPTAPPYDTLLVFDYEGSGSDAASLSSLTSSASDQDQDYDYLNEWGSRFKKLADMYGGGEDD
# test-protocol: FACS on HCT-116 cells
# Protocol: Binding of the test antibodies to P-cadherin expressed on cells was determined by flow cytometry analysis. […] After the final wash, cells were resuspended in 100 μL 1% BSA/1×PBS (Ca+/Mg+) and fluorescence values were measured with a FACS Canto II cytometer (BD Biosciences). The amount of cell surface bound anti-P-cadherin antibody was assessed by measuring the mean fluorescence (MFI). […] Binding of the antibodies to human P-cadherin expressed on cells was determined by flow cytometry analysis.
measurement-name: Max MFI

W3195-1.53.1-p7-uIgG1LV320 (antibody, V domains shown, also called W3195-1.53.1-p7-uIgG1V320; W3195-p7-V320 antibody) VH: QVQLQESGPGLVKPSETLSLTCTVSGGSVISDNYYWTWVRQPPGKGLEFIGYIYYRGSTNYNPSLKNRVIISIDTSRNQFSLDLNSVTAADTAVYYCARDRRTGSSLPFDNWGQGTLVTVSS VL: SYELTQPPSVSVSPGQTAQITCSGDKLGDKFASWYQQKSGQSPVVVIYQDNKRPSGFPERFSGSNSGNTATLTISGTQAMDEADYYCQAWDSSIVVFGGGTKLTVLG = 4230
W3195-1.53.1-p6-uIgG1LV320 (antibody, V domains shown, also called W3195-1.53.1-p6-uIgG1V320; W3195-p6-V320 antibody) VH: QVQLQESGPGLVKPSETLSLTCTVSGGSVISDNYYWTWVRQPPGKGLEFIGYIYYRGSTNYNPSLKNRVIISIDTSRNQFSLDLNSVTAADTAVYYCARDRRTGTSLPFDNWGQGTLVTVSS VL: SYELTQPPSVSVSPGQTAQITCSGDKLGDKFASWYQQKSGQSPVVVIYQDNKRPSGFPERFSGSNSGNTATLTISGTQAMDEADYYCQAWDSSIVVFGGGTKLTVLG = 4180
W3195-1.53.1-p5-uIgG1LV320 (antibody, V domains shown, also called W3195-1.53.1-p5-uIgG1V320; W3195-p5-V320 antibody) VH: QVQLQESGPGLVKPSETLSLTCTVSGGSVISDNYYWTWVRQPPGKGLEFIGYIYYRGSTNYNPSLKNRVIISIDTSRNQFSLDLNSVTAADTAVYYCARDRRTGQSLPFDNWGQGTLVTVSS VL: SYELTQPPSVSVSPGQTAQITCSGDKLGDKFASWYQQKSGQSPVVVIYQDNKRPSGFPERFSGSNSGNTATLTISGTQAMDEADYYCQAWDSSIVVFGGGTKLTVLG = 4170
W3195-1.53.1-p4-uIgG1LV320 (antibody, V domains shown, V320 = IgG1 Fc with L234A/L235A; also called W3195-1.53.1-p4-uIgG1V320; W3195-p4-V320 antibody) VH: QVQLQESGPGLVKPSETLSLTCTVSGGSVISDNYYWTWVRQPPGKGLEFIGYIYYRGSTNYNPSLKNRVIISIDTSRNQFSLDLNSVTAADTAVYYCARDRRTGNALPFDNWGQGTLVTVSS VL: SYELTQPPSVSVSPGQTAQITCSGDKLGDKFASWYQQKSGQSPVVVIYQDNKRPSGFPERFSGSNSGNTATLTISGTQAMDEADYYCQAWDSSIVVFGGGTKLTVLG = 4190
